experiment: Quantitative High-Throughput drug screen in 47 multiple myeloma cell lines against the NCATS MIPE library collection: KMS28BM_JCRB cell viability assay (AID 1919874); settings: CellTiter-Glo ATP, 48 h; series mostly up to 45.8 µM; note: nearly all actives have a fitted effect of over 35% in size
Inconclusive results are not listed. Active and inactive are the calls of the source. Calls come from the whole dose curve; as a rule, active = well fitted cell-killing curve with a large enough effect; inconclusive = small, poorly fitted or top-dose-only effect, or effect the other way; inactive = no such curve, though single readings can be large or run the other way.
Outcomes: active, inactive

COMPOUND: Cc1c(OCC(F)(F)F)ccnc1CS(=O)c1nc2ccccc2[nH]1 (stereo unspecified)
GROUP: inactive
//
COMPOUND: CCCCC(CC)COC(=O)C(C#N)=C(c1ccccc1)c1ccccc1 (stereo unspecified)
GROUP: inactive
//
COMPOUND: O=C1CCc2ccc(OCCCCN3CCN(c4cccc(Cl)c4Cl)CC3)cc2N1
GROUP: inactive
//
COMPOUND: CN1CCC(=C2c3ccccc3CCc3sccc32)CC1
GROUP: active
//
COMPOUND: COc1ccccc1N1CCN(CCN(C(=O)C2CCCCC2)c2ccccn2)CC1
GROUP: inactive
//
COMPOUND: O=C(O)c1cc(=O)c2c(OCC(O)COc3cccc4oc(C(=O)O)cc(=O)c34)cccc2o1
GROUP: inactive
//
COMPOUND: C[C@@H](N)C1CCC(C(=O)Nc2ccncc2)CC1 (stereo partly specified)
GROUP: inactive
//
COMPOUND: O=C(CCc1ccc(O)cc1)c1c(O)cc(O)cc1O
GROUP: inactive
//
COMPOUND: CNC[C@H](O)c1ccc(O)c(O)c1
GROUP: active
//
COMPOUND: O=c1oc2cc(O)ccc2s1
GROUP: inactive
//
COMPOUND: CC1(C)C(=O)N(CCN2CCC(C(=O)c3ccc(F)cc3)CC2)c2ccccc21
GROUP: active
//
COMPOUND: O=C(O)CCNC(=O)c1ccc(N=Nc2ccc(O)c(C(=O)O)c2)cc1
GROUP: inactive
//
COMPOUND: COc1cc(Nc2c(C#N)cnc3cc(OCCCN4CCN(C)CC4)c(OC)cc23)c(Cl)cc1Cl
GROUP: active
//
COMPOUND: N=C(N=C(N)N)N1CCOCC1
GROUP: inactive
//
COMPOUND: Nc1ccc(S(N)(=O)=O)cc1
GROUP: inactive
//
COMPOUND: NC(=NCc1ccccc1)NC(=O)c1nc(Cl)c(N)nc1N
GROUP: inactive
//
COMPOUND: Cc1cc2cc3c(C)cc(=O)oc3c(C)c2o1
GROUP: inactive
//
COMPOUND: CC(C)Oc1ccc2c(=O)c(-c3ccccc3)coc2c1
GROUP: inactive
//
COMPOUND: COCCCOc1ccnc(CS(=O)c2nc3ccccc3[nH]2)c1C (stereo unspecified)
GROUP: inactive
//
COMPOUND: C=CCc1cc(OC)c(O)c(C(=O)NCCO)c1
GROUP: inactive
//
COMPOUND: Oc1ccc(OCc2ccccc2)cc1
GROUP: inactive

* * *

target: N-terminal Xaa-Pro-Lys N-methyltransferase 1 (Homo sapiens); test: qHTS Assay for Inhibitors of N-terminal methyltransferase 1 (NTMT1): LOPAC validation of the NTMT1 SAHH-coupled ThioGlo3 Assay (AID 1347143); settings: recombinant NTMT1, SAHH-coupled ThioGlo3 fluorescence; series mostly up to 114 µM;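 note: SAH from peptide methylation measured as thiol fluorescence via SAHH coupling and ThioGlo3; nearly all actives have a fitted effect of over 70% in size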
Results filed as inconclusive are left out. Calls of active or inactive are those of the source. Calls come from the whole dose curve; as a rule, active = well fitted inhibition curve with a large enough effect; inconclusive = small, poorly fitted or top-dose-only effect; inactive = no such curve, though single readings can be large or run the other way.
Classes used: active, inactive

COMPOUND: COc1cc2c(cc1OC)C1CC(=O)C(CC(C)C)CN1CC2 (configuration not stated)
GROUP: inactive
--
COMPOUND: CN(C)C(=O)[C@H](O)[C@H](Cc1ccccc1)NC(=O)c1cc2cc(Cl)ccc2[nH]1
GROUP: inactive
--
COMPOUND: O=Nc1c(-c2c(O)[nH]c3cc(Br)ccc23)[nH]c2ccccc12
GROUP: active
--
COMPOUND: O=c1ccc2ccc(O)c(O)c2o1
GROUP: active
--
COMPOUND: Nc1nc(N)c(N=O)c(OCC2CCCCC2)n1
GROUP: inactive
--
COMPOUND: CNC[C@H](O)c1ccc(O)c(O)c1
GROUP: inactive
--
COMPOUND: O=C1NC(=O)C(c2ccccc2[N+](=O)[O-])=C1Nc1ccc(O)c(Cl)c1
GROUP: active
--
COMPOUND: C[C@@H](c1ncncc1F)[C@](O)(Cn1cncn1)c1ccc(F)cc1F
GROUP: inactive
--
COMPOUND: Cc1c(OCC(F)(F)F)ccnc1CS(=O)c1nc2ccccc2[nH]1 (configuration not stated)
GROUP: active
--
COMPOUND: NCCCCNCCCN
GROUP: inactive
--
COMPOUND: O=c1c(O)c(-c2cc(O)c(O)c(O)c2)oc2cc(O)cc(O)c12
GROUP: active
--
COMPOUND: CC(=O)N1CCN(c2ccc(OC[C@H]3CO[C@](Cn4ccnc4)(c4ccc(Cl)cc4Cl)O3)cc2)CC1
GROUP: active
